Target: Beta-secretase 1 (Homo sapiens)
Test: Inhibition of human BACE1 (1 to 460 residues) using APP-based peptide as substrate at 10 uM incubated for 60 mins by FRET analysis
recorded-endpoint: inhibition

- N=C(N)N/N=C(/C=C/c1ccccc1)c1ccc([N+](=O)[O-])cc1: 13.5%

Ask: State its inhibition for this molecule: N=C(N)N/N=C(/C=C/c1cccc([N+](=O)[O-])c1)c1cccc(Br)c1
Result: 10.8%

Ask: State its inhibition for this molecule: N=C(N)N/N=C(/C=C/c1cccc([N+](=O)[O-])c1)c1ccc([N+](=O)[O-])cc1
Result: 62.1%

Ask: State its inhibition for this molecule: N=C(N)N/N=C(/C=C/c1cccc([N+](=O)[O-])c1)c1ccccc1
Result: 47.9%

====

Target: Beta-secretase 1 (Homo sapiens, UniProt P56817)
Sequence (P56817 whole entry, the tested form may be a part): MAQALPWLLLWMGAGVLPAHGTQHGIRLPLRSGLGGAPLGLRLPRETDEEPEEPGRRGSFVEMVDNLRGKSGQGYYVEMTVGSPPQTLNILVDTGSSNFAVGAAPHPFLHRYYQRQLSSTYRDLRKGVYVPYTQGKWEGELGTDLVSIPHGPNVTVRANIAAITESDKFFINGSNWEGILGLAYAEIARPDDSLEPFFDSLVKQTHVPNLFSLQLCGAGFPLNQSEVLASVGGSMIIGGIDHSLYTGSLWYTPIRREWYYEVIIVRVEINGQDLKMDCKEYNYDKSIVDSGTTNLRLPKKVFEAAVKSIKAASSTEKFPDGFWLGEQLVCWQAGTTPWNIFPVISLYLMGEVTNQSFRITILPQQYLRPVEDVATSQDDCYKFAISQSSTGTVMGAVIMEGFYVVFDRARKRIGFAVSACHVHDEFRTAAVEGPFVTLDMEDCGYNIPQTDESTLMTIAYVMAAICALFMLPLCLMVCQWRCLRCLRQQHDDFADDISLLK
recorded-endpoint: IC50 (µM)
Give the value in µM but do not write µM after it.

Ask: Answer with IC50 of COc1ccc(/C=C/C(=N/NC(=N)N)c2ccc(Cl)cc2)cc1OC measured for Beta-secretase 1 (Homo sapiens, UniProt P56817).
Result: 6.42

====

Target: Beta-secretase 1 (Homo sapiens)
Test: Inhibition of human BACE1 (1 to 460 residues) using APP-based peptide as substrate at 10 uM incubated for 60 mins by FRET analysis
recorded-endpoint: inhibition (%)

Example entries and their recorded answers appear below.
- COc1ccc(/C=C/C(=N/NC(=N)N)c2ccc(Cl)cc2Cl)cc1OC: 21.8
- COc1ccc(C(/C=C/c2cccc([N+](=O)[O-])c2)=N\NC(=N)N)cc1: 11
- COc1ccc(C(/C=C/c2cc(OC)ccc2OC)=N\NC(=N)N)cc1: 10.3

1: Cc1ccc(C(/C=C/c2ccc(N(C)C)cc2)=N\NC(=N)N)cc1
2: N=C(N)N/N=C(/C=C/c1ccccc1)c1cccc([N+](=O)[O-])c1
Ask: // max by inhibition over [ 1 , 2 ] Give the chosen item's label as your response.
Result: 2
(2: 23.4%, 1: 10.8%)

====

Target: Beta-secretase 1 (Homo sapiens)
Test: Inhibition of human BACE1 (1 to 460 residues) using APP-based peptide as substrate at 10 uM incubated for 60 mins by FRET analysis
recorded-endpoint: inhibition (%)

- CN(C)c1ccc(/C=C/C(=N/NC(=N)N)c2cccc([N+](=O)[O-])c2)cc1: 28

1: COc1ccc(/C=C/C(=N/NC(=N)N)c2ccc(Cl)cc2)cc1OC
2: COc1ccc(/C=C/C(=N/NC(=N)N)c2cccc([N+](=O)[O-])c2)cc1OC
3: CN(C)c1ccc(/C=C/C(=N/NC(=N)N)c2ccc([N+](=O)[O-])cc2)cc1
4: N=C(N)N/N=C(/C=C/c1cccc([N+](=O)[O-])c1)c1ccc(Cl)cc1Cl
5: N=C(N)N/N=C(/C=C/c1ccccc1)c1ccccc1
Ask: Please rank these compounds by inhibition in descending order. Give me the labels in the order the question wants.
Result: 1, 2, 3, 5, 4
(1: 78.2%, 2: 45.8%, 3: 23.9%, 5: 10.8%, 4: 5.4%)

I: COc1ccc(/C=C/C(=N/NC(=N)N)c2ccc([N+](=O)[O-])cc2)cc1OC
II: N=C(N)N/N=C(/C=C/c1ccccc1)c1ccc(Cl)cc1
III: COc1ccc(/C=C/C(=N/NC(=N)N)c2ccccc2)cc1OC
IV: COc1ccc(/C=C/C(=N/NC(=N)N)c2cccc(Br)c2)cc1OC
Ask: Which order do these items take when sorted by rising inhibition? List them. Give me the labels in the order the question wants.
Result: II, IV, III, I
